# ASSAY_REMARKS: Density of the pure solvent
# Format: physicochemical
# EXPERIMENTAL_SETUP: pure solvent
Where a name gives a salt, the structure may show the parent alone.
Here, each record is paired with measured density data.

| COMPOUND | density (g/mL) |
| --- | --- |
| CCCCC(CC)COP(=O)(O)OCC(CC)CCCC (stereo not drawn) [Bis(2-ethylhexyl) phosphate] | 0.965 |
| CCCCCCCCOC(=O)c1ccc(C(=O)OCCCCCCCC)cc1 [dioctyl terephthalate] | 0.986 |
| CCCCCCCC/C=C\CCCCCCCCO [oleyl alcohol, reference compound] | 0.849 |
| CC1COC(=O)O1 (stereo not drawn) [propylene carbonate] | 1.2 |
| CC(C)CCOCCC(C)C | 0.78 |
| CCCCC(CC)CO (stereo not drawn) | 0.833 |
| CC(CCO)CC(C)(C)C (stereo not drawn) | 0.824 |
| CCCCCCOC(=O)c1ccccc1O [hexyl salicylate] | 1.04 |
| CCCCCCOCCCCCC | 0.793 |
| CCCCC(CC)COC(=O)/C=C\C(=O)OCC(CC)CCCC (stereo not drawn) [Bis(2-ethylhexyl) maleate] | 0.944 |
| CCCCCCCCCCCC(=O)OCCCC [butyl dodecanoate] | 0.855 |
| CCCCC(CC)COC(=O)CCCCC(=O)OCC(CC)CCCC (stereo not drawn) [bis(2-ethylhexyl)adipate] | 0.925 |
